# experimental_details: physchem
# experimental_parameters: octan-1-ol/water, pH 7.4, LogD7.4
Exam item: assign met to entries whose logD is below 2 and not met to entries at or above 2. Note that a value of exactly 2 receives not met.

*Q* Threshold test, logD < 2: CNC(=O)c1ccc(C)c(-n2c(C)cc(OCc3ccc(F)cc3F)c(Br)c2=O)c1
*A* not met

*Q* Subsequent entry: O=C(NCC12CC3CC(CC(C3)C1)C2)c1cc(CC2CCNCC2)ccc1Cl
*A* met

*Q* Thanks! And CC(C)(C(N)=O)C(=O)NCCCNc1nc(Nc2cccc(NC(=O)N3CCCC3)c2)ncc1Br ?
*A* not met

*Q* For O=C(COCc1ccncc1)N1CCC(c2ccc(Cl)cc2Cl)CC1 then?
*A* not met

*Q* Item: Cc1nn(-c2ccc(F)cc2)c(NS(=O)(=O)c2ccc(C(F)(F)F)cc2)c1C(=O)N[C@@H](C)C(C)(C)C
*A* not met

*Q* Further, for O=C(Nc1ccc(N2CCOCC2)cc1)c1nnc(NC(=O)C2(c3ccc(Cl)cc3)CCC2)o1 ?
*A* not met

*Q* Repeat with NCCCC(=O)OCCN1CCN(CCCN2c3ccccc3Sc3ccc(Cl)cc32)CC1 [PERPHENAZINE 4-AMINOBUTYRATE]
*A* met

*Q* // next record Cc1ccc(C(=O)c2cc(O)c(O)c([N+](=O)[O-])c2)cc1
*A* met

*Q* Also check Clc1ccccc1-c1c[nH]nn1
*A* not met

*Q* # repeat for O=C(Nc1ccc(C(F)(F)F)c(Cl)c1)N1CCN(C[C@@H]2CCCN(C3CC3)C2)CC1
*A* not met

*Q* Queued: Cc1c(CC(=O)O)c2cc(F)ccc2n1S(=O)(=O)c1ccc(S(C)(=O)=O)cc1
*A* met

*Q* Try the compound Cc1oncc1C(=O)Nc1ccc(C(F)(F)F)cc1 [LEFLUNOMIDE]
*A* not met

*Q* Then this compound: O=C(O)CC[C@@H]1c2ccccc2C[C@H]1NC(=O)c1cc2sc(Cl)c(Cl)c2[nH]1
*A* not met

*Q* Another compound: COc1cc2ncnc(Nc3cccc(Cl)c3F)c2cc1CN(C)[C@H](C)C(N)=O
*A* not met

*Q* Another compound to check: CC(C)C(NC(=O)Cn1c(-c2ccc(F)cc2)ncc(N)c1=O)C(=O)C(F)(F)F (centres undefined)
*A* met

*Q* Another compound to check: Fc1ccc(CNc2ncc(Br)c(Nc3cc(C4CC4)[nH]n3)n2)cc1
*A* not met

*Q* What do you have for Oc1nc2c(O)ccc(CCNCCCCCCOCCc3ccccc3)c2s1 ?
*A* not met

*Q* // repeat for Cn1sc(NC(=O)c2cccc(Cl)c2)nc1=O and report
*A* met

*Q* Try the compound CS(=O)(=O)N1CCc2c(-c3cnc(N)nc3)nc(N3CCOCC3)nc21
*A* met

*Q* Now this one: O=C(O)[C@H](Cc1ccc(F)cc1)N1CCC(CN2CCC(Oc3ccc(Cl)c(Cl)c3)CC2)CC1
*A* not met

*Q* And what about the compound Cc1cc(Nc2nc(O[C@H](C)c3ccc(F)cn3)c(C#N)nc2C)[nH]n1 ?
*A* not met

*Q* Proceed to CC(=O)N1CCN(CC(O)COc2ccc(Br)cc2)CC1 (centres undefined)
*A* met

*Q* Can you check CC(=O)Nc1ccc2c(c1)c(-c1cc(NC3CC3)n3ncc(C#N)c3n1)cn2C next?
*A* not met

*Q* Next compound up: C[C@H]1O[C@@H](n2cnc3c(N)nc(OC(C4CC4)C(F)(F)F)nc32)[C@H](O)[C@@H]1O (some centres undefined)
*A* met

*Q* Also, Cc1c(Sc2ccc(Cl)cc2)c2c(NS(C)(=O)=O)cccc2n1CC(=O)O please.
*A* met

*Q* Same for CN1CCN(S(=O)(=O)c2ccc(-c3cnc(N)c(C(=O)Nc4cccnc4)n3)cc2F)CC1
*A* not met

*Q* And what about the compound Cc1cc(N)c2cc(NC(=O)CCCCC(=O)Nc3ccc4nc(C)cc(N)c4c3)ccc2n1 ?
*A* met

*Q* Now consider CC1CN(Cc2cc(Cl)ccc2OCC(=O)O)CCN1S(=O)(=O)c1ccccc1 (centres undefined) .
*A* met

*Q* Queued: CN[C@@H](C)C(=O)N[C@H](C(=O)N[C@H]1CCCN(CCCc2ccccc2)C1)C1CCCCC1
*A* not met

*Q* Could you do the same for Cc1ccc2c(c1)c(-c1ccnc3c(Cl)cccc13)c(C)n2CC(=O)O , please?
*A* met

*Q* Consider next the compound C[C@@H]1C[C@H]2[C@@H]3CCC4=CC(=O)C=C[C@]4(C)[C@@]3(F)[C@@H](O)C[C@]2(C)[C@@]1(O)C(=O)CO in the same way.
*A* met

*Q* Another compound to check: Cc1nc(-c2ccc(C)c(NC(=O)c3ccc(OCc4ccccn4)cc3)c2)c[nH]1
*A* not met

*Q* Now the same for FC(F)c1nc2ccccc2n1-c1nc(N2CCOCC2)nc(N2CCOCC2)n1
*A* not met

*Q* What do we get for CN1CCN(c2ccc(Nc3ccnc4ccccc34)cc2)CC1 ?
*A* met

*Q* Now consider NNCCc1ccccc1 and answer again.
*A* met

*Q* Then this compound: Nc1nc(Nc2ccc(S(N)(=O)=O)cc2)nn1C(=O)c1c(F)cccc1F
*A* met

*Q* Another compound to look at: COc1cc2ncc(C(N)=O)c(Nc3ccccc3F)c2cc1OC
*A* not met

*Q* Could you do the same for CN(C)CCC=C1c2ccccc2C=Cc2ccccc21 , please?
*A* not met

*Q* And COc1ncc2ccc(=O)n(CCN3CCC(NCc4cc5c(cn4)OCCO5)CC3)c2n1 ?
*A* met
